System: HCT-116 colon
procedure summary: NCI tumour cell line growth inhibition, 48 h
measured endpoint: TGI

molecule: Cn1c(-c2cccs2)cc(-c2cccs2)c1-c1ccco1
target or system: HCT-116 colon
measurement: > 100 µM
--
molecule: COc1ccc(Cc2cc3c(cc2OCC(=O)O)OCO3)cc1
target or system: HCT-116 colon
measurement: > 100 µM
--
molecule: Cc1ccc(C2NC(=O)c3ccccc3N2)s1 (centres undefined)
target or system: HCT-116 colon
measurement: > 100 µM
--
molecule: CCCCCCCC/C=C\CCCCCCCC(=O)O
target or system: HCT-116 colon
measurement: 217 µM
--
molecule: Nc1ncc(Cl)c(NCC2(CO)CC(CCc3ccccc3)C2)n1 (centres undefined)
target or system: HCT-116 colon
measurement: > 100 µM
--
molecule: COC(=O)CCC(=O)Nc1cc(Cl)ccc1Cl
target or system: HCT-116 colon
measurement: > 100 µM

query: Form field: reported TGI of `CC(=O)[O-].[Mn+3].[O-]c1ccccc1C=NCCN=Cc1ccccc1[O-]`
result: > 100 µM

query: Quick one: TGI of Cc1nn(C(=O)c2ccncc2)c2c1C(c1ccccc1)SC(N)=N2 (centres undefined) ?
result: > 10 µM

query: Fill blank: measured TGI of the molecule Cc1ccc(NC(=O)C(=O)CC(=O)C2CCOC2=O)c(C)c1 (centres undefined) is ____.
result: > 100 µM

query: Endpoint output: TGI of `CN(C)Cc1cc(C(C)(C)C)ccc1-c1ccc(C(C)(C)C)cc1CN(C)C` . Value?
result: > 100 µM

query: Item under review: `CS(=O)(=O)CCNCc1ccc(-c2ccc3ncnc(Nc4ccc(OCc5cccc(F)c5)c(C(F)(F)F)c4)c3c2)o1` . Reported TGI?
result: 8.16 µM

----------
Listed here: items and their measured GI50.
System: HL-60(TB) leukemia
procedure summary: NCI tumour cell line growth inhibition, 48 h

Below, each entry is followed by its recorded GI50 result.
record smiles: NCCN.NCCN.O=C[O-].O=C[O-].[Co+3].[O-][Cl+3]([O-])([O-])[O-]
measurement: > 100 µM
//
record smiles: COc1cc(Nc2ncc(F)c(Nc3ccc4c(n3)NC(=O)C(C)(C)O4)n2)cc(OC)c1OC
measurement: > 10 µM
//
record smiles: CS(=O)(=O)CCNCc1ccc(-c2ccc3ncnc(Nc4ccc(OCc5cccc(F)c5)c(C(F)(F)F)c4)c3c2)o1
measurement: 5.65 µM

Consider now this further molecule.
query: Which GI50 value is on record for `O=c1c(O)cccc2cc(O)c(O)c(O)c12` ?
result: 21.9 µM

----------
System: HOP-62 NSCLC
procedure summary: NCI tumour cell line growth inhibition, 48 h
measured endpoint: TGI

# example entries with known answers
compound: Cc1ccc2c(n1)C(=O)C=CC2=O
measurement: > 58.3 µM

compound: CCN(CC)CCNC(=O)c1ccc(I)cc1
measurement: > 100 µM

compound: O=C(Nc1c(C(F)(F)F)cc(-c2ccccc2)[nH]c1=O)N1CCOCC1
measurement: > 100 µM

compound: CN(CCO)c1nc(N)cc(=O)[nH]1
measurement: > 100 µM

query: TGI of C/C1=C/C(C)CC(C)OC(=O)C(C)NC(=O)C(Cc2ccc(O)c(I)c2)N(C)C(=O)C(C)NC(=O)C(C)C1 (stereo unspecified) on HOP-62 NSCLC?
result: < 0.01 µM

query: Lab note: need TGI for C/C=C1/CN2CCC3(O)c4ccccc4N4C=C(C(=O)OC)C1CC2C43O (stereo unspecified) on HOP-62 NSCLC, anyone have it?
result: > 100 µM

query: Please provide the recorded TGI for `CN(C)C/C=C/C(=O)Nc1cc2c(Nc3ccc(F)c(Cl)c3F)ncnc2cc1OCCOC(F)F` , tested on HOP-62 NSCLC.
result: 5.61 µM

query: Provide the documented TGI with HOP-62 NSCLC as the system for `Cc1nc(-c2ccccc2)cc2c1c(=O)oc1ccccc12`
result: > 100 µM

query: What measured TGI is associated with `CC(C)(C)OC(=O)N(O)CCCn1cnc2c(N)ncnc21` on HOP-62 NSCLC?
result: > 100 µM

----------
Quick reference for GI50 among some compounds
Test system: MDA-MB-231 breast
procedure summary: NCI tumour cell line growth inhibition, 48 h

See these solved cases before continuing.
compound: OC(COc1ccc(F)cc1)Cn1cnc2c(Cl)ncnc21 (stereo not given)
measurement: 64700 nM

compound: N#CSc1c[nH]c2ccc(/C=C/C(=O)/C=C(/C=C/c3ccc4[nH]cc(SC#N)c4c3)OB(F)F)cc12
measurement: 917 nM

compound: N#CC(C#N)N=Nc1ccc(Br)cc1
measurement: 1690 nM

compound: COc1cc(/C=C/c2cc(/C=C/c3ccc(O)c(OC)c3)nc(N)n2)ccc1O
measurement: 1450 nM

query: Entry `COc1ccc(-c2nc(C(=O)c3ccccc3)n(CC(=O)c3ccccc3)c2-c2ccc(OC)cc2)cc1` : reported GI50 = ?
result: > 100000 nM

----------
Listing of recorded GI50 by entry.
System: SNB-19 CNS
procedure summary: NCI tumour cell line growth inhibition, 48 h

compound: COc1cc2c3c(n(CCCNCCCNCCCNCCCN)c(=O)c2cc1OC)-c1cc2c(cc1C3=O)OCO2
measured endpoint: GI50
measurement: 2.23 µM
--
compound: OC(COc1ccc(F)cc1)Cn1cnc2c(Cl)ncnc21 (stereo not given)
measured endpoint: GI50
measurement: > 100 µM
--
compound: CCCCCCCCCc1cc[n+](CC(=O)c2ccc([N+](=O)[O-])cc2)cc1
measured endpoint: GI50
measurement: 0.478 µM
--
compound: O=Cc1ccc(-c2ccc(-c3nc4ccccc4o3)cc2)s1
measured endpoint: GI50
measurement: 49.2 µM
--
compound: O=c1c(O)cccc2cc(O)c(O)c(O)c12
measured endpoint: GI50
measurement: 8.44 µM
--
compound: CN1C(=O)[C@@H](NC(=O)[C@H](CCC(F)(F)F)[C@H](CCC(F)(F)F)C(N)=O)N=C(c2ccccc2)c2ccccc21
measured endpoint: GI50
measurement: > 100 µM
--
compound: Nc1nc(Cl)cc(OCC2(CO)CC(OCc3ccccc3)C2)n1 (stereo not given)
measured endpoint: GI50
measurement: 51.6 µM
--
compound: CC(=O)N1c2ccccc2NC2=C(C(=O)N(Cc3ccccc3)C2(C)C)C1c1ccco1 (stereo not given)
measured endpoint: GI50
measurement: 0.524 µM
--
compound: Clc1ccc(C2=Nn3c(nnc3-c3cc(Cl)cc(Cl)c3Cl)SC2)cc1
measured endpoint: GI50
measurement: 15.6 µM

Shift focus to the following entry.
query: May I ask what GI50 has been recorded for `COc1cc(Nc2ncc(F)c(Nc3ccc4c(n3)NC(=O)C(C)(C)O4)n2)cc(OC)c1OC` ?
result: > 100 µM

----------
Tested on: SN12C renal
procedure summary: NCI tumour cell line growth inhibition, 48 h
Entries and their GI50

record smiles: CS(=O)(=O)CCNCc1ccc(-c2ccc3ncnc(Nc4ccc(OCc5cccc(F)c5)c(C(F)(F)F)c4)c3c2)o1
GI50: 4.73 µM
//
record smiles: CCCCCCCCCc1cc[n+](CC(=O)c2ccc([N+](=O)[O-])cc2)cc1
GI50: 0.581 µM
//
record smiles: NCCN.NCCN.O=C[O-].O=C[O-].[Co+3].[O-][Cl+3]([O-])([O-])[O-]
GI50: > 100 µM
//
record smiles: Cc1nc([C@H]2CC[C@H]3[C@@H]4CCC5=CC(=O)CC[C@]5(C)[C@H]4CC[C@]23C)cs1
GI50: > 100 µM
//
record smiles: COc1ccc(-c2nc(C(=O)c3ccccc3)n(CC(=O)c3ccccc3)c2-c2ccc(OC)cc2)cc1
GI50: > 100 µM

Please examine the following record next.
query: Name the reported GI50 value associated with the compound `COC1=CC(=O)C(OC)=C(OC)C1=O`
result: 15.1 µM

----------
Tested on: LOX IMVI melanoma
procedure summary: NCI tumour cell line growth inhibition, 48 h
Measured GI50, listed per entry for reference.

compound: COc1ccc(/C=C2\CC(C)CC3C2=NN(C(C)=O)C3c2ccc(OC)cc2)cc1 (stereo unspecified)
target or system: LOX IMVI melanoma
measured endpoint: GI50
measurement: 17.6 µM

query: Dear colleague, I am looking for the recorded GI50 of the following compound: `CN1C(=O)[C@@H](NC(=O)[C@H](CCC(F)(F)F)[C@H](CCC(F)(F)F)C(N)=O)N=C(c2ccccc2)c2ccccc21`
result: > 100 µM

query: For the compound `CCCCCCCCCc1cc[n+](CC(=O)c2ccc([N+](=O)[O-])cc2)cc1` , what GI50 is on record?
result: 1.66 µM

query: I would be grateful if you could share the reported GI50 for `C[C@@H]1Cc2c([nH]c3ccccc23)[C@@H](c2c(F)cc(NC3CN(CCCF)C3)cc2F)N1CC(F)(F)CO` .
result: 1.75 µM

query: Request the reported GI50 associated with Cc1cc(O)c(C2=NN(c3ccc(S(N)(=O)=O)cc3)C(c3ccc(N(C)C)cc3)C2)c(C)c1Cl (stereo unspecified)
result: 14.8 µM

Where do these numbers come from? They come from PubChem BioAssay (NCI).
